- assay_info: S. cerevisiae RM11-1a growth modifiers, primary screen, strain RM11-1a, OD600, basal, 24 h (AID 1177);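 note: cultures grown under basal conditions with no added stressor; test concentration not given here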
- study_conditions: OD600, 24 h, higher = more signal, called active from +8 up or from −8 down
Use z-score to assign classes; range list: low class: < 0.05; middle class: ≥ 0.05 and < 2; high class: ≥ 2

1. COC(=O)[C@@]1(Cc2ccc(F)cc2)[C@H]2c3cc(C(=O)N4CCCC4)n(C)c3C[C@H]2CN1C(=O)c1ccccc1 : middle class

Task: Textbook exercise: identify the category of the compound given here, CC(C)(C)OC(=O)CC[C@]12N=C(c3ccc(OCCCO)cc3)O[C@H]1c1ccccc1N(Cc1ccccc1)C2=O , according to its measured value.
Result: high class

Task: Param item: COCCCNC(=O)[C@@]1(Sc2ccc(C)cc2)CC(=O)N(C(C)C)[C@@H]1c1ccc(CO)cc1I
Result: low class

Task: Okay, and CCCCC=C[C@@H](NC(=O)c1ccccc1)c1ccccc1 ?
Result: low class

Task: Please answer likewise for C=C(/C(=C/C[C@@H](OC(C)=O)c1ccc(OCCO)cc1)c1cc(C(=O)OC)ccc1OC)C(C)C
Result: middle class
